- target or test system: human somatostatin receptor subtype 2 (Homo sapiens)
- Construct: expressed in transfected cells
- Sequence (P30874 whole entry): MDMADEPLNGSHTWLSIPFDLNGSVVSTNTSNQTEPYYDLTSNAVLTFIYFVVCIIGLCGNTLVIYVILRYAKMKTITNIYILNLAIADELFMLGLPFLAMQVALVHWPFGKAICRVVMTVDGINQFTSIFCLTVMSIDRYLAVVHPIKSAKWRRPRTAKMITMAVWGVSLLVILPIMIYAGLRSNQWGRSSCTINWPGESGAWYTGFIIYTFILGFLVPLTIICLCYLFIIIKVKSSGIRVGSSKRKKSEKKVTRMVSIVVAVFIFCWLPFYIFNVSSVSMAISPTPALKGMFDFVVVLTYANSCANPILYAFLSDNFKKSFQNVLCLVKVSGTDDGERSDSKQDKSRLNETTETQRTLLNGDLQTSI
- experimental protocol: Functional cAMP assay for SSTR2 agonists (HTRF) in CHO-K1 cells
- Assay type: cell-based
- condition details: CHO-K1 cells stably expressing human SST2, 20 min; read-out: hSST2 cAMP Avg EC50
Examples of compounds with documented EC50 follow.

| compound | EC50 |
| --- | --- |
| CC[C@H](C)[C@@H]([C@@H](CC(=O)N1CCC[C@H]1[C@H](OC)[C@@H](C)C(=O)N[C@H](C)[C@@H](O)c1ccccc1)OC)N(C)C(=O)[C@@H](NC(=O)[C@H](C(C)C)N(C)C(=O)OCc1ccc(NC(=O)[C@H](C)NC(=O)[C@@H](NC(=O)[C@H](CS(=O)(=O)O)NC(=O)CCOCCOCCOCCOCCC(=O)NCCNc2ncc(-c3cc(C)cc(F)c3)c(N3CCC(N)CC3)c2-c2nc3ccc(Cl)cc3[nH]2)C(C)C)cc1C(=O)NCCN)C(C)C | 0.24 nM |
| CC[C@@H](C)[C@H]([C@H](CC(=O)N1CCC[C@@H]1[C@@H](OC)[C@H](C)C(=O)N[C@@H](C)[C@H](O)c1ccccc1)OC)N(C)C(=O)C(NC(=O)[C@@H](C(C)C)N(C)C(=O)OCc1ccc(NC(=O)[C@H](CCCNC(N)=O)NC(=O)[C@@H](NC(=O)CCOCCNC(=O)[C@H](CS(=O)(=O)O)NC(=O)CCOCCOCCOCCOCCC(=O)NCCNc2ncc(-c3cc(C)cc(F)c3)c(N3CCC(N)CC3)c2-c2nc3ccc(Cl)cc3[nH]2)C(C)C)cc1)C(C)C (some centres unmarked) | 0.089 nM |
| CC[C@H](C)[C@@H]([C@@H](CC(=O)N1CCC[C@H]1[C@H](OC)[C@@H](C)C(=O)N[C@H](C)[C@@H](O)c1ccccc1)OC)N(C)C(=O)[C@@H](NC(=O)[C@H](C(C)C)N(C)C(=O)OCc1ccc(NC(=O)[C@H](CCCNC(N)=O)NC(=O)[C@@H](NC(=O)CCOCCOCCOCCOCCC(=O)NCCNc2ncc(-c3cc(C)cc(F)c3)c(N3CCC(O)CC3)c2-c2nc3ccc(Cl)cc3[nH]2)C(C)C)cc1)C(C)C | 1700 nM |
| CC[C@H](C)[C@@H]([C@@H](CC(=O)N1CCC[C@H]1[C@H](OC)[C@@H](C)C(=O)N[C@H](C)[C@@H](O)c1ccccc1)OC)N(C)C(=O)[C@@H](NC(=O)[C@H](C(C)C)N(C)C(=O)OCc1ccc(NC(=O)[C@H](CCCNC(N)=O)NC(=O)[C@@H](NC(=O)CCCC(=O)N(C)CC(=O)NCCNc2ncc(-c3cc(C)cc(F)c3)c(N3CCC(N)CC3)c2-c2nc3ccc(Cl)cc3[nH]2)C(C)C)c(O[C@@H]2O[C@H](C(=O)O)[C@@H](O)[C@H](O)[C@H]2O)c1)C(C)C | 0.22 nM |
| COc1cc2cc(c1Cl)N(C)C(=O)CC(OC(=O)[C@@H](C)N(C)C(=O)CCSSCCC(=O)NCCNc1ncc(-c3cc(C)cc(F)c3)c(N3CCC(N)CC3)c1-c1nc3ccc(Cl)cc3[nH]1)[C@]1(C)OC1[C@@H](C)C1C[C@@](O)(NC(=O)O1)[C@H](OC)/C=C/C=C(\C)C2 (some centres unmarked) | 0.27 nM |
